Test: in vitro
Assay type: cell-based
Conditions: human; log c -8; 24 h; MTT; read-out: % of viability
// reported viability at 24 h, 10 nM for each item listed
Express it in %; write the number only.

The cases that follow already have their viability at 24 h, 10 nM on record.
compound | quantity | measured.result
C[C@]12CCC(=O)C=C1CC[C@@H]1[C@@H]2[C@@H](O)C[C@@]2(C)[C@H]1CC[C@]2(O)C(=O)CO | viability at 24 h, 10 nM | 106
C[C@]12CCC(=O)C[C@@H]1CC[C@@H]1[C@@H]2CC[C@]2(C)[C@@H](O)CC[C@@H]12 [5α-dihydrotestosterone] | viability at 24 h, 10 nM | 109
C[C@]12CC[C@H]3[C@@H](CCC4=CC(=O)CC[C@@]43C)[C@@H]1CC[C@@H]2O | viability at 24 h, 10 nM | 108

The compound listed as C[C@]12CCC(=O)C=C1CC[C@@H]1[C@@H]2[C@@H](O)C[C@]2(C=O)[C@@H](C(=O)CO)CC[C@@H]12 shows viability at 24 h, 10 nM equal to 99.4
